experimental_target: T1, human IL-1β (human, UniProt P01584 117-269)
T1 construct: antigen of the ABT2 dAbs; also called hIL-1β; IL-1 beta
protocol_text: IC50 column of Table 63; receptor binding assay presumed
This section presents binders with their documented IC50 values.
Give just the numeric value; nM need not be written.

ABT2-65-10 (other, VH dAb) VH: VQLSESGGGLVQPGGSLRLSCAASGFTFTEYNMGWVRQAPGKGLEWVSSISAMGNRTYYADSVKGRFTISRDDSKNTLYLQMNSLRAEDTAVYYCANNLVRTQSKMWMFDYWGQGTLVTVSS ... 20

For the next question, use this binder.
**Query** Query (binder): ABT2-65-25 (other, VH dAb) VH: EVQLLESGGGLVQPGGSLRLSCAASGFTFEDYQMGWVRQAPGKGLEWVSSISAMGNRTYYADSVKGRFTISRDDSKNTLYLQMNSLRAEDTAVYYCAQNLVRYRSYYWMFDYWGQGTLVTVLS ; field requested: IC50
**Result** 4
